- experiment: LAMP-1 surface exposure blockers, TALL-104 cells – cell-based, flow cytometry, MLPCN library, primary screen (AID 651702)
- recorded-conditions: TALL-104 LAMP-1 surface exposure, at 10 µM, active compounds read high, cells stimulated with thapsigargin and PMA
In all, about 360,000 compounds went through this assay and about 2,400 (0.67%) were called active. What follows is part of a selection rich in actives, with near analogues and random picks from the rest.
measured-parameter: inhibition (%)
Please respond with the number in % and leave the unit unwritten.

Below: 5 compounds and their reported inhibition.
COc1ccc(Cl)cc1C(=O)OCC(=O)NCc1cccs1
20.4
O=S(=O)(c1cccc2nonc12)N1CCN(c2cccc(Cl)c2)CC1
-11.1
COc1ccccc1NC(=O)C(C)OC(=O)c1ccc(-n2cnnn2)cc1 (stereo unspecified)
2.1
COc1ccccc1CNC(=O)c1cc(-c2cc(Cl)ccc2C)n[nH]1
2.8
Cc1cc2oc(=O)cc(CN(C)Cc3ccccc3)c2cc1Cl
-1.1

Req: Given CCc1cc(C(=O)N(CC)CC(=O)Nc2c(F)cccc2F)sc1C , state its recorded inhibition.
Resp: 18.1

* * *

- experiment: LAMP-1 surface exposure blockers, TALL-104 cells – cell-based, flow cytometry, MLPCN library, primary screen (AID 651702)
- recorded-conditions: TALL-104 LAMP-1 surface exposure, at 10 µM, active compounds read high, cells stimulated with thapsigargin and PMA
In all, about 360,000 compounds went through this assay and about 2,400 (0.67%) were called active. Many of the other results were omitted from the sample, so actives are more common in it than they were.
measured-parameter: inhibition (%)
Please respond with the number in % and leave the unit unwritten.

Below: 4 compounds and their reported inhibition.
C=CCn1c(SCC(=O)Nc2ccc(NC(C)=O)cc2)nc2sc(C)c(C)c2c1=O
-3.1
CC(C)CCN1NC2(CCC(C)CC2)NC1=S (stereo unspecified)
-6.9
CCOc1ccc(C(C)=O)cc1COC(=O)CNC(=O)c1cccs1
-4.6
Cc1cc(NC(=O)CS(=O)(=O)c2cn(C)c3ccccc23)no1
-1.6

Req: Given CCOc1ccc(C(C)=O)cc1COC(=O)c1cnc(Cl)c(Cl)c1 , state its recorded inhibition.
Resp: 57.6

Req: Same thing, different compound: CC1(C(=O)NCc2ccccc2)CSCC(=O)N1CCCN1CCOCC1 (stereo unspecified)
Resp: 4.3

* * *

- experiment: LAMP-1 surface exposure blockers, TALL-104 cells – cell-based, flow cytometry, MLPCN library, primary screen (AID 651702)
- recorded-conditions: TALL-104 LAMP-1 surface exposure, at 10 µM, active compounds read high, cells stimulated with thapsigargin and PMA
Among all 360,000 compounds or so, about 2,400 (0.67%) were called active. What follows is part of a selection rich in actives, with near analogues and random picks from the rest.
# key: entry, value: inhibition
Please respond with the number in % and leave the unit unwritten.

Req: Given Brc1ccc2c(c1)[C@H]1OCC[C@H]1[C@@H](c1cccs1)N2 , state its recorded inhibition.
Resp: 1

* * *

- experiment: LAMP-1 surface exposure blockers, TALL-104 cells – cell-based, flow cytometry, MLPCN library, primary screen (AID 651702)
- recorded-conditions: TALL-104 LAMP-1 surface exposure, at 10 µM, cells stimulated with thapsigargin and PMA
Out of some 360,000 compounds screened, about 2,400 (0.67%) were called active.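 The calls were made as follows: active = inhibition above about 55% (limit read from the data); inconclusive = no clear call, values can overlap the other calls; inactive = the rest.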 The entries come from a sample that favours actives as a whole.
Thanks in advance; please answer with one of these: active, inactive

COc1cc(/C=C2/C(=O)ON=C2C)ccc1OCc1ccccc1F
active

Req: Assay result, entry CC1=NOC(=O)/C1=C\c1ccccc1 — outcome?
Resp: inactive

Req: Same thing, different compound: CCOC(=O)C1(C)CCCN(C(=O)c2ccc(N(C)C)cc2)C1 (centres undefined)
Resp: inactive

Req: Same thing, different compound: CCOC(=O)C1(C)CCCN(C(=O)c2ccc(F)c(Cl)c2)C1 (centres undefined)
Resp: active

* * *

- experiment: LAMP-1 surface exposure blockers, TALL-104 cells – cell-based, flow cytometry, MLPCN library, primary screen (AID 651702)
- recorded-conditions: TALL-104 LAMP-1 surface exposure, at 10 µM, active compounds read high, cells stimulated with thapsigargin and PMA
In all, about 360,000 compounds went through this assay and about 2,400 (0.67%) were called active. For the sample, actives were picked, then their nearest neighbours and some compounds at random.
# key: entry, value: inhibition
Please respond with the number in % and leave the unit unwritten.

Below: 5 compounds and their reported inhibition.
CSCCC(NC(=O)COc1ccccc1)C(=O)N1CCN(c2cccc(C(F)(F)F)c2)CC1 (stereo not drawn)
1.5
Cc1ccccc1OS(=O)(=O)c1cccc([N+](=O)[O-])c1
-1.4
COc1ccccc1C1=CC(=O)CCC1
47.3
COc1ccccc1C1=Nc2cccc3cccc(c23)N1
65.7
CCOC(=O)C1(CCOC)CCN(Cc2cc3ccccc3s2)CC1
0.4

Req: Given O=C(COc1ccc(Cl)cc1)N1CCN(c2cccc(C(F)(F)F)c2)CC1 , state its recorded inhibition.
Resp: 58.7

Req: Same thing, different compound: O=C(CSc1ccccc1)Nc1nnc(/C=C/c2ccccc2)s1
Resp: -0.2

Req: Same thing, different compound: NC(=O)CCCC1=NS(=O)(=O)c2ccccc2N1
Resp: -3.9

Req: Same thing, different compound: CCOc1ccc(NS(=O)(=O)c2ccc(C(=O)NCC(c3ccccc3OC)N3CCCC3)cc2)cc1 (stereo not drawn)
Resp: -1.8

Req: Same thing, different compound: OC(CNCC1CCCO1)Cn1c2ccc(Br)cc2c2cc(Br)ccc21 (stereo not drawn)
Resp: 41.3

Req: Same thing, different compound: CCOc1ccc(N2C(=O)CN(c3cccc4ccccc34)C2=S)cc1
Resp: -2.1

Req: Same thing, different compound: COc1ccc(-c2cc(NC=O)c3ncc(-c4ccccc4)n3c2)cc1OC
Resp: 81.8

Req: Same thing, different compound: COc1ccc2c(c1)C(=C(C#N)C#N)C(=O)N2CCc1ccccc1
Resp: 97.9

Req: Same thing, different compound: CCO/C=C1\C(=O)N(c2ccc(OCC)cc2)C(=O)c2ccccc21
Resp: -2.4

Req: Same thing, different compound: CCOc1cc(CN2CCCC(CO)(Cc3ccc(F)cc3F)C2)ccc1OC (stereo not drawn)
Resp: 11.4

Req: Same thing, different compound: CCCS(=O)(=O)N1CCC(CCOc2ccccc2)(C(=O)OCC)CC1
Resp: -2.2

Req: Same thing, different compound: CCCCCn1nnnc1-c1nc2cc3ccccc3cc2[nH]c1=O
Resp: 56.3

Req: Same thing, different compound: CCOc1ccc(/C=C/C(=O)OCC(=O)c2ccccc2OC)cc1OC
Resp: -4.4

Req: Same thing, different compound: COc1ccc(/C=C/c2nnc(NC(=O)C(C)C)s2)cc1
Resp: 2

Req: Same thing, different compound: COC(=O)[C@H](C)[C@H]1C[C@]1(C)[C@H](NC(=O)OCc1ccccc1)c1ccccc1
Resp: 5.6

Req: Same thing, different compound: COc1ccccc1-c1nc(C(F)(F)F)c(OC)o1
Resp: 1.1

Req: Same thing, different compound: CCCCn1c(-c2cccc(C)c2)nc2cc3[nH]c(=O)c(C(C)C)nc3cc21
Resp: 7.2

Req: Same thing, different compound: O=C(CSc1nnc(-c2ccoc2)o1)N1CCOCC1
Resp: -6.6

* * *

- experiment: LAMP-1 surface exposure blockers, TALL-104 cells – cell-based, flow cytometry, MLPCN library, primary screen (AID 651702)
- recorded-conditions: TALL-104 LAMP-1 surface exposure, at 10 µM, active compounds read high, cells stimulated with thapsigargin and PMA
The campaign covered roughly 360,000 compounds. About 2,400 (0.67%) were called active. The sample holds actives, similar compounds and a random draw of the others, so the mix is not that of the screen.
measured-parameter: inhibition (%)
Please respond with the number in % and leave the unit unwritten.

Below: 3 compounds and their reported inhibition.
COc1ccc(-c2c(C#Cc3ccccc3)c3ccccc3n2C)cc1
-3.3
Cn1c(C(=O)N2CCCC(C(=O)NCc3ccccc3)C2)cc2sccc21 (centres undefined)
-4.6
Brc1ccccc1C1Nc2cccc3cccc(c23)N1
72.2

Req: Given Cc1cc(SCC(=O)c2ccccc2)nc(SCC(=O)c2ccccc2)n1 , state its recorded inhibition.
Resp: 78.5

Req: Same thing, different compound: CCCC(C(=O)n1nc(C)cc1C)C(NS(=O)(=O)c1ccc(C)cc1)c1ccccc1 (centres undefined)
Resp: 66

Req: Same thing, different compound: Oc1ccccc1-c1cc(-c2ccc(Cl)cc2)n[nH]1
Resp: 92.9

Req: Same thing, different compound: COc1ccc(Br)cc1CN(C)CC(=O)Nc1cc([N+](=O)[O-])ccc1OC
Resp: 0.6

Req: Same thing, different compound: COc1ccc(OC)c(NC(=O)CN(Cc2ccc(Cl)cc2)S(C)(=O)=O)c1
Resp: 6.3

* * *

- experiment: LAMP-1 surface exposure blockers, TALL-104 cells – cell-based, flow cytometry, MLPCN library, primary screen (AID 651702)
- recorded-conditions: TALL-104 LAMP-1 surface exposure, at 10 µM, cells stimulated with thapsigargin and PMA
In all, about 360,000 compounds went through this assay and about 2,400 (0.67%) were called active.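 How the source made its calls: active means inhibition above about 55% (limit read from the data); inconclusive means no clear call, values can overlap the other calls; inactive means the rest.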 This is one part of a sample in which actives are shown more often than they occur.
Thanks in advance; please answer with one of these: active, inactive

CCN(CC(=O)Nc1ccccc1C(=O)NC1CC1)Cc1cccs1
inactive
COc1cccc(CN(C)CC(=O)NCc2ccccc2Cl)c1OC
inactive
N#Cc1ccc(C(C(=O)NCc2ccccc2)n2c(=O)c(-c3ccco3)nc3ccccc32)cc1 (stereo not drawn)
inactive
O=C(Cc1ccc(NC(=O)C2CCCN(C(=O)CCc3ccccc3)C2)cc1)Nc1ccc(C(=O)N2CCOCC2)cc1 (stereo not drawn)
inactive

Req: Assay result, entry O=C(CC(CC(=O)c1ccccc1)c1ccco1)c1ccccc1 — outcome?
Resp: inactive

Req: Same thing, different molecule: Cc1cccc(C)c1NC(=O)N1CC(C)OC(C)C1 (stereo not drawn)
Resp: inactive

Req: Same thing, different molecule: NS(=O)(=O)c1cc(Cl)c(Cl)c(S(N)(=O)=O)c1
Resp: inactive

Req: Same thing, different molecule: COc1cc(C(=O)Nc2cc(C(F)(F)F)ccc2N2CCOCC2)ccc1O
Resp: inactive

Req: Same thing, different molecule: O=C1CCC([N+](=O)[O-])C(c2ccccc2Br)N1 (stereo not drawn)
Resp: inactive

Req: Same thing, different molecule: Cn1c(=O)c2c(n(Cc3ccccc3)c1=O)NC(=O)C2CC(=O)N1CCc2ccccc2C1 (stereo not drawn)
Resp: inactive

Req: Same thing, different molecule: CC1CCCCC1NC(=O)Cn1c(=O)cnc2ccccc21 (stereo not drawn)
Resp: inactive

Req: Same thing, different molecule: Cc1cccc(C)c1NC(=O)COC(=O)c1ccccc1O
Resp: inactive

Req: Same thing, different molecule: CCc1ccccc1N(CC(=O)NCCSCc1ccco1)S(C)(=O)=O
Resp: inactive

Req: Same thing, different molecule: C#CCN1CC(C)/C(=N/O)CC1C (stereo not drawn)
Resp: inactive

Req: Same thing, different molecule: Cc1ccc(NC(=S)N2CCCC(c3ccccc3)=N2)cc1
Resp: inactive
